- Procedure text: recombinant UMI read abundance after kanamycin selection (control-corrected) (log10(CPM+1)); higher = more efficient recombination; extreme values may be limits of the assay; sequences stand for … in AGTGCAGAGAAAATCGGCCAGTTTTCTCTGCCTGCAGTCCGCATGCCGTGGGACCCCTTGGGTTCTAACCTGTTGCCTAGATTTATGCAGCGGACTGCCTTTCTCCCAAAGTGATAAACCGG…AGGTTGGTTTCACT; site = the 11-nt donor
Quick rule for you: recombinant UMI read abundance (log10) at 1 or higher means satisfied, lower means not satisfied.

Below, 3 sequences whose answers are already recorded.
{"Residue string": "TAGAAAACATGGACCGGTTTTCCCGGTAATCCGTATTTGCA (site TAGAAAACTTG)", "Class": "satisfied"}
{"Residue string": "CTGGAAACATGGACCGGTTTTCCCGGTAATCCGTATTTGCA (site CTGGACACTTG)", "Class": "not satisfied"}
{"Residue string": "TCTTACTCATGGACCGGTTTTCCCGGTAATCCGTATTTGCA (site TCGTACTCTTG)", "Class": "not satisfied"}

Okay, now this sequence:
Lookup: Reported recombinant UMI read abundance (log10) reaches at least 1 for CTTCTCGCATGGACCGGTTTTCCCGGTAATCCGTATTTGTA (site CTTCTCACTTA) ?
Found: not satisfied

* * *

- Procedure text: recombinant UMI read abundance after kanamycin selection (control-corrected) (log10(CPM+1)); higher = more efficient recombination; extreme values may be limits of the assay; sequences stand for … in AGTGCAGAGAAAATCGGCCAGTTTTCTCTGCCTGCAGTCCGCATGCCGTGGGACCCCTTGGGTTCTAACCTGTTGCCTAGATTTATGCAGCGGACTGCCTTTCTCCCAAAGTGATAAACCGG…AGGTTGGTTTCACT; site = the 11-nt donor
Reported property: recombinant UMI read abundance (log10)
Reply with just the number.

Known recombinant UMI read abundance (log10) results, listed for orientation:
{"Residue string": "CAGCTAGCATGGACCGGTTTTCCCGGTAATCCGTATTTGAA (site TAGCTAGCTTT)", "recombinant UMI read abundance (log10)": 0.596}
{"Residue string": "TAGCTCACATGGACCGGTTTTCCCGGTAATCCGTATTTGGC (site TAGCTCACTGC)", "recombinant UMI read abundance (log10)": 1.5}
{"Residue string": "TTGTAGACATGGACCGGTTTTCCCGGTAATCCGTATTTGCA (site TTGTAGACTTG)", "recombinant UMI read abundance (log10)": 1.87}
{"Residue string": "GCTACGTCATGGACCGGTTTTCCCGGTAATCCGTATTTGTT (site GTTACGTCTAA)", "recombinant UMI read abundance (log10)": 0.0153}

Lookup: What value of recombinant UMI read abundance (log10) has been reported for the following sequence? CGGGGAACATGGACCGGTTTTCCCGGTAATCCGTATTTGTT (site CGGGGAACTAA)
Found: 2.6

* * *

Below, each of the sequences is paired with its reported recombinant barcode read abundance (log10) value.
- Procedure text: recombinant barcode read abundance after kanamycin selection (control-corrected) (log10(CPM+1)); higher = more efficient recombination; sequences stand for … in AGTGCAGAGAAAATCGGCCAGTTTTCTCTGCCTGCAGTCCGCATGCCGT…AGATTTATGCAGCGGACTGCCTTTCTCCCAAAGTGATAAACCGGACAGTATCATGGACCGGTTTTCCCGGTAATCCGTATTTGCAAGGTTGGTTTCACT; site = the 11-nt target
Reply with just the number.

Known recombinant barcode read abundance (log10) results, listed for orientation:
{"Residue string": "TCACCTGCTTGGGTTCTAACCTGTTGCCT (site TCACTTGCTAG)", "Numeric result": 0.0607}
{"Residue string": "AGGAACTCTTGGGTTCTAACCTGTTGCAT (site AGGAACTCTAT)", "Numeric result": 2.44}

Lookup: What value of recombinant barcode read abundance (log10) has been reported for the following sequence? TAGTCAACTTGGGTTCTAACCTGTTGCGT (site TAGTCAACTAC)
Found: 0.593

Lookup: What value of recombinant barcode read abundance (log10) has been reported for the following sequence? AAGATAGCTTGGGTTCTAACCTGTTGCCT (site AAGATAGCTAG)
Found: 1.59

Lookup: What value of recombinant barcode read abundance (log10) has been reported for the following sequence? GCCGGTCCTTGGGTTCTAACCTGTTGCCT (site GCCGGTCCTAG)
Found: 0.549

Lookup: What value of recombinant barcode read abundance (log10) has been reported for the following sequence? ACTAGTGCTTGGGTTCTAACCTGTTGCCT (site ATTAGTGCTAG)
Found: 0.0112

Lookup: What value of recombinant barcode read abundance (log10) has been reported for the following sequence? TCTTAGACTTGGGTTCTAACCTGTTGCGA (site CAAACCTCTGT)
Found: 0.0411

Measured values drawn from the supplement of paper PMC11208160 for this set.
